# Tested on: SK-MEL-28 melanoma
# assay-protocol: NCI tumour cell line growth inhibition, 48 h
// reported TGI per item

Entry COc1ccc(-c2cc(-c3ccccc3)c3c(n2)-c2ccccc2NC(=O)C3)cc1 , TGI reported as > 100 µM

Entry CCCCCCCCCCCCOCCCCCCCCC/C=C/c1ccc2c(c1)OCCOCCOCCOCCO2 , TGI reported as > 100 µM

Entry CC(=O)C(C(=N)C#N)C(=O)Nc1ccccc1 (stereo not given) , TGI reported as > 100 µM

Entry O=c1oc2ccccc2c(Cl)c1Cl , TGI reported as 7.76 µM

Entry C[C@@H](Oc1cc(-c2cnn(C3CCNCC3)c2)cnc1N)c1c(Cl)ccc(F)c1Cl , TGI reported as 3.54 µM

Entry COc1ccc(-c2c(C#N)c(N)n(C3OCC(O)C(O)C3O)c(=S)c2C#N)cc1 (stereo not given) , TGI reported as > 100 µM

Entry COc1cc2c3c(n(CCCO)c(=O)c2cc1OC)-c1cc2c(cc1C3=O)OCO2 , TGI reported as > 100 µM

Entry COc1cc(/C=C2\CC(C)CC3C2=NN(c2ccccc2)C3c2cc(OC)c(OC)c(OC)c2)cc(OC)c1OC (stereo not given) , TGI reported as 39.7 µM

Entry CCOC(=O)c1nc2cc(F)c(F)cc2nc1NCc1cc(OC)c(OC)c(OC)c1 , TGI reported as > 100 µM

Entry O=[N+]([O-])/C(C(Cl)=C(Cl)Cl)=C(\Nc1cccc2cccnc12)Sc1ccccc1 , TGI reported as 36 µM
